experiment-notes: Enflicoxib metabolism in intestinal microsomes
recorded-conditions: male, Sprague-Dawley, rat, intestinal microsomes, pH 7.4
measured-parameter: half-life at 10 µM
State the value with its unit after it.

(Q) Returns the measured half-life at 10 µM for the input molecule. Input: C[C@]12CC[C@H]3[C@@H](CCC4=CC(=O)CC[C@@]43C)[C@@H]1CC[C@@H]2O [Testosterone, testosterone]
(A) 2.22 h

----------
experiment-notes: Enflicoxib metabolism in intestinal microsomes
recorded-conditions: male, beagle, dog, intestinal microsomes, pH 7.4
measured-parameter: half-life at 10 µM
A bare number is not enough; add the unit after it.

(Q) Sample `C[C@]12CC[C@H]3[C@@H](CCC4=CC(=O)CC[C@@]43C)[C@@H]1CC[C@@H]2O` — what was its half-life at 10 µM?
(A) 35.5 min
